# study.system: T1, Abp1, P15891
# T1 sequence (P15891 535-592, looked up): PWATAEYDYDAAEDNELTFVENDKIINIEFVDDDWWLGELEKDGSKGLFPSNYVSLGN
# experiment.summary: SPOT array
# condition.description: median of control spots 935
measured.quantity: SPOT intensity

Worked set:
{"binder": "SSTPTTPERPKRKSG", "SPOT intensity": 22}
{"binder": "LYEAMPPTLPHRDWK", "SPOT intensity": 0}
{"binder": "SKIRPTPRKPSRMAT", "SPOT intensity": 345}
{"binder": "APKHAPPPVPNETDN", "SPOT intensity": 0}
{"binder": "QTMRQAPKRPDADVA", "SPOT intensity": 81}
{"binder": "KRRAPPPVPKKPSSR", "SPOT intensity": 626}
{"binder": "STKKPRPPVKSKPKH", "SPOT intensity": 397}
{"binder": "LKHGWKPLRPIKLIS", "SPOT intensity": 75}
{"binder": "ALRRRLPVTRSKINW", "SPOT intensity": 134}
{"binder": "LRWRHKFFLPAIAAI", "SPOT intensity": 0}

(A) GSKSGPPPRPKKPST
(B) TSIEIPKRSPLRFTS
Ask: Which numeric SPOT intensity is bigger, that of A or that of B ? State the label of the item chosen.
Result: A
(A: 285, B: 60)
